Entry source: patent US4954358A

# Tested on: Bacillus licheniformis
# Protocol Details: MIC, agar plate dilution method on standard nutrient agar
# Type: cell-based
# Test Conditions: Bacillus licheniformis spores, 37° C., 24 hours
Parameter Measured: minimum growth inhibiting concentration (MIC) (%)
Write it as a number; the unit % goes unstated.

// sample `NCC(=O)O` , its minimum growth inhibiting concentration (MIC) was 2

Reported minimum growth inhibiting concentration (MIC) ( CCCCCCCCCC(=O)OCC(O)CO (stereo not shown) [Capric acid monoglyceride] ) = 0.01
